Data origin: the supplement of paper PMC6555819

System: VDR homodimer (NR concentration 270 nM)
Method: PBM binding z-score (relative to random genomic background probes); higher = stronger binding; sequences stand for … in GC…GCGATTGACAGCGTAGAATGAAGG
Property: PBM binding z-score; scope: individual sequences
Reply with just the number.

Query: I have this sequence here, `TTAATGAGGTTATAAGATCAGGGAACGTTGCAAA` , and I need its recorded PBM binding z-score.
Reply: 0.74

Query: I have this sequence here, `CCGACTAGGGCAGAAAGGTTACCATACCATCCGG` , and I need its recorded PBM binding z-score.
Reply: -0.0974

Others:
Query: I have this sequence here, `CGGCCTAGGTCAGGGCCAGTATAGGAGGAACGTT` , and I need its recorded PBM binding z-score.
Reply: -0.395

Query: I have this sequence here, `CGTCAAAGTTTAACTAAGGTAACGTAAAGCACGC` , and I need its recorded PBM binding z-score.
Reply: 0.79

Query: I have this sequence here, `TAGCCTAGGTCAGCTCGGGCCAGTATACGCTATA` , and I need its recorded PBM binding z-score.
Reply: -0.788

Query: I have this sequence here, `CGTCCAATGTCAGCAGGTCAGTGAAAGCGACGTG` , and I need its recorded PBM binding z-score.
Reply: 0.584

Query: I have this sequence here, `ATATGTAGGTTAAGGGTCATTGAGGTTGGTTCGC` , and I need its recorded PBM binding z-score.
Reply: 4.8

====

Test system: RXRa DBDmut IVT, anti-RXR (DBD mutation: RXRa K156A/R161A, NR concentration 90 nM)
Method: PBM binding z-score (relative to random genomic background probes); higher = stronger binding; sequences stand for … in GC…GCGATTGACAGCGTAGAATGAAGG
# if value of PBM binding z-score reaches 0.9, tag rule met; if it stays below, tag rule not met

Query: Does PBM binding z-score meet or surpass 0.9 for `CCTTACTGGTCACGAGGTTATAGCACGACGAGCG` ?
Reply: rule not met

Moving on to the next sequence.
Query: Does PBM binding z-score meet or surpass 0.9 for `ATCTCTAGGTAACCACGTTCAGTGAATGCCGAAC` ?
Reply: rule not met

====

Test system: RARg homodimer (NR concentration 270 nM)
Method: PBM binding z-score (relative to random genomic background probes); higher = stronger binding; sequences stand for … in GC…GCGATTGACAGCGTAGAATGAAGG
# if value of PBM binding z-score reaches 0.5, tag satisfied; if it stays below, tag not satisfied

Query: Does PBM binding z-score meet or surpass 0.5 for `CGTCCAAGGTCAAACGTCAGTGAAGAGATGACGG` ?
Reply: satisfied

Others:
Query: Does PBM binding z-score meet or surpass 0.5 for `ATCTCTTGGTAAAGATAGTTCAGTGAATGCAAAT` ?
Reply: satisfied

Query: Does PBM binding z-score meet or surpass 0.5 for `CATACAGGGTCAGCTAGGCCAGAGTCGGGACGGC` ?
Reply: satisfied

Query: Does PBM binding z-score meet or surpass 0.5 for `ATCGCTAGGTAAGACTCAGTTCAGTGAAGAACGC` ?
Reply: not satisfied

====

Test system: PPARg:RXRa DBDmut IVT, anti-RXR (DBD mutation: RXRa K156A/R161A, NR concentration 270 nM, RXRa partner concentration 90 nM)
Method: PBM binding z-score (relative to random genomic background probes); higher = stronger binding; sequences stand for … in GC…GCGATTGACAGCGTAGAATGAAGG
# if value of PBM binding z-score reaches 2, tag Y; if it stays below, tag N

Query: Does PBM binding z-score meet or surpass 2 for `GAAGACAGGTGAAACGCAGGTAACTCAGGGTGGC` ?
Reply: N

Query: Does PBM binding z-score meet or surpass 2 for `TCGAGTAGGTTACCAATGTGGCATTCAGCTTTCT` ?
Reply: Y

Others:
Query: Does PBM binding z-score meet or surpass 2 for `GCGACTGGGGCATCAGCAGATTACCATAACTTAA` ?
Reply: Y

Query: Does PBM binding z-score meet or surpass 2 for `CAAACTAGGTCACAGAGGTCAAGGTCCGTGCGTA` ?
Reply: Y

Query: Does PBM binding z-score meet or surpass 2 for `ACTAGCAGGCCATGGGTCACTCAAGATTAGTCCG` ?
Reply: N

====

System: RARa:RXR (NR concentration 270 nM, RXRa partner concentration 90 nM)
Method: PBM binding z-score (relative to random genomic background probes); higher = stronger binding; sequences stand for … in GC…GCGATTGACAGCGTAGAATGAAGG
Assay metric: PBM binding z-score

Some entries whose results are on file:
Query: Tell me reported PBM binding z-score for `CCTACTGGGTCAAAAAGGTCATTGATGCCGATAA` , tested with RARa:RXR (NR concentration 270 nM, RXRa partner concentration 90 nM).
Reply: 6.15

Query: Tell me reported PBM binding z-score for `CGAACTAGGTCAGACCAGGACAGTGAAGGATGAT` , tested with RARa:RXR (NR concentration 270 nM, RXRa partner concentration 90 nM).
Reply: 1.37

Query: Tell me reported PBM binding z-score for `ATCTCAAGGTAAAGTTCAGTGAAAGATCGATAGA` , tested with RARa:RXR (NR concentration 270 nM, RXRa partner concentration 90 nM).
Reply: 1.78

Query: Tell me reported PBM binding z-score for `CCTCGGAGGACAGAAGGTCGGAGCTGTCCGCTTT` , tested with RARa:RXR (NR concentration 270 nM, RXRa partner concentration 90 nM).
Reply: -0.413

Query: Tell me reported PBM binding z-score for `ATCGAAAGGTCGAAGGTAAGTATACCCACCCGAA` , tested with RARa:RXR (NR concentration 270 nM, RXRa partner concentration 90 nM).
Reply: 3.27

Query: Tell me reported PBM binding z-score for `CGAACGAGGGCATGAGTTGGTAGCAAATGCCGAT` , tested with RARa:RXR (NR concentration 270 nM, RXRa partner concentration 90 nM).
Reply: 0.384

Others:
Query: Tell me reported PBM binding z-score for `GCAGACAGGTGAAACGCAGGTTACTCAGGGTGGC` , tested with RARa:RXR (NR concentration 270 nM, RXRa partner concentration 90 nM).
Reply: 0.833

Query: Tell me reported PBM binding z-score for `CCGACTGGGCCAAGGTCATTGATCAGTCAAAGCA` , tested with RARa:RXR (NR concentration 270 nM, RXRa partner concentration 90 nM).
Reply: 3.76

====

Test system: THRa:RXRa (NR concentration 90 nM, RXRa partner concentration 90 nM)
Method: PBM binding z-score (relative to random genomic background probes); higher = stronger binding; sequences stand for … in GC…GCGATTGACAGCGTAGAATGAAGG
Response field class: string, computed from recorded PBM binding z-score by ranges lower bin: < 2; middle bin: ≥ 2 and < 3; upper bin: ≥ 3

Query: State the band of `TCTAGTTGGTCCCGGAGGTCACACACGACGGGTA`
Reply: upper bin

Moving on to the next sequence.
Query: State the band of `TACACAGGGTCAAAGGCCAGAGTACGAATGTCGA`
Reply: upper bin

====

Tested on: RARg homodimer (NR concentration 270 nM)
Method: PBM binding z-score (relative to random genomic background probes); higher = stronger binding; sequences stand for … in GC…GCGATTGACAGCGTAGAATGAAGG
Property: PBM binding z-score; scope: individual sequences
Reply with just the number.

Some entries whose results are on file:
Query: I have this sequence here, `TCTTGTAGATCAACAAGAGGTTAAGAAAGATCGA` , and I need its recorded PBM binding z-score.
Reply: 0.53

Query: I have this sequence here, `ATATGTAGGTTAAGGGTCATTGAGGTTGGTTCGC` , and I need its recorded PBM binding z-score.
Reply: 3.36

Query: I have this sequence here, `GCTAGGAGGACAAGGTCAGAGCTTTGTCCGTAGA` , and I need its recorded PBM binding z-score.
Reply: 3.49

Query: I have this sequence here, `CGTCAAAGTTCAACTAAGGTAACGTCAAGCACGC` , and I need its recorded PBM binding z-score.
Reply: 6.81

Query: I have this sequence here, `TAGCCTAGGTCATTGGGCCAGTATGGTACGCATC` , and I need its recorded PBM binding z-score.
Reply: 3.81

Query: I have this sequence here, `ATATGCAGGTTAGCTGGGGTCATTCAGACTAGGC` , and I need its recorded PBM binding z-score.
Reply: 3.11

Query: I have this sequence here, `CGAACTAGGTCAAGGACAATGAATCTCCGCACGC` , and I need its recorded PBM binding z-score.
Reply: 4.64

Query: I have this sequence here, `AATACAGGGTCACTAGGCCAGAGTCGGTACGAAT` , and I need its recorded PBM binding z-score.
Reply: 4.87

Others:
Query: I have this sequence here, `TATACATGGTCAAAGGCCAGAGTACGAATGTCGA` , and I need its recorded PBM binding z-score.
Reply: 1.67

Query: I have this sequence here, `AGAACGAGGGCTCGCTGAGTTGATAGCAGAGTAG` , and I need its recorded PBM binding z-score.
Reply: -0.258

Query: I have this sequence here, `AGTCACAGTTCAGGACGAGGTAACGTAAAGCACG` , and I need its recorded PBM binding z-score.
Reply: 1.95

Query: I have this sequence here, `CCGACTGGGGCAAAGGTTACCATCCTCAGTACGA` , and I need its recorded PBM binding z-score.
Reply: 1.56

Query: I have this sequence here, `CCTTACGGGTCACGAGGTTAAAGCACGACGAGCG` , and I need its recorded PBM binding z-score.
Reply: 5.56
